# Test system: 439559-082-T-J2-PDC spheroid viability
# protocol: Anticancer human tumor 439559-082-T-J2-PDC patient-derived colon adenocarcinoma cell line growth inhibition [POLQ]
# test_settings: second compound 1 µM; first compound 0.1 µM; stronger effect = lower value; spheroids with HUVEC and MSC
attribute_measured: viability, T/C (%)
Report the figure in % without appending any unit label.

## Input Recorded viability, T/C of O=C(Nc1ccc(O)c(NS(=O)(=O)c2ccc(F)cc2)c1)c1ccc(-c2ccccc2)cc1 + COC1C(OC(N)=O)C(O)C(Oc2ccc3c(O)c(NC(=O)c4ccc(O)c(CC=C(C)C)c4)c(=O)oc3c2C)OC1(C)C , please.
## Output 98.4

## Input For COc1ccc([C@@H](O)c2cc(-c3ncnc4cc(N5CCOCC5)ccc34)c(F)cc2Cl)nn1 + Cc1cccc(N(C)C(=O)C2C(O)CCN2c2nc(C)cc(C(F)(F)F)c2C#N)c1 , what is its reported viability, T/C?
## Output 101

## Input Please report the recorded viability, T/C for CC[C@@]1(O)C(=O)OCc2c1cc1n(c2=O)Cc2cc3c(CN(C)C)c(O)ccc3nc2-1 + Cc1cccc(N(C)C(=O)C2C(O)CCN2c2nc(C)cc(C(F)(F)F)c2C#N)c1 .
## Output 80.9

## Input For CC[C@@]1(O)C(=O)OCc2c1cc1n(c2=O)Cc2cc3c(CN(C)C)c(O)ccc3nc2-1 + Nc1ccc(C#CCN(C(=O)Cc2ncc(C(F)(F)F)cc2C(F)(F)F)c2ccc(F)cc2)nn1 , what is its reported viability, T/C?
## Output 75.4

## Input Entry under review: CCCS(=O)(=O)Nc1ccc(F)c(C(=O)c2c[nH]c3ncc(-c4ccc(Cl)cc4)cc23)c1F + Cc1cccc(N(C)C(=O)C2C(O)CCN2c2nc(C)cc(C(F)(F)F)c2C#N)c1 . Reported viability, T/C?
## Output 103

## Input Name the recorded viability, T/C for CCc1cc2c(N3CCc4c(cc(Cn5ccnc5)cc4-c4cn(C)nc4C(F)(F)F)C3=O)cc(C)nc2c(OC)n1 + COC1C(OC(N)=O)C(O)C(Oc2ccc3c(O)c(NC(=O)c4ccc(O)c(CC=C(C)C)c4)c(=O)oc3c2C)OC1(C)C .
## Output 105

## Input Requested read-out: viability, T/C. Entry: O=C(c1cc(Cc2n[nH]c(=O)c3ccccc23)ccc1F)N1CCN(C(=O)C2CC2)CC1 + Nc1ccc(C#CCN(C(=O)Cc2ncc(C(F)(F)F)cc2C(F)(F)F)c2ccc(F)cc2)nn1
## Output 107

## Input Please give the measured viability, T/C for this compound: C=CC(=O)N1CCN(c2nc(=O)n(-c3c(C)ccnc3C(C)C)c3nc(-c4c(O)cccc4F)c(F)cc23)C(C)C1 (stereo not given) + Cc1cccc(N(C)C(=O)C2C(O)CCN2c2nc(C)cc(C(F)(F)F)c2C#N)c1
## Output 97.8

## Input Could you tell me which viability, T/C is on file for CC(C)n1c(=O)n(C)c2cnc3cc(F)c(-c4ccc(OCCCN5CCCCC5)nc4)cc3c21 + COC1C(OC(N)=O)C(O)C(Oc2ccc3c(O)c(NC(=O)c4ccc(O)c(CC=C(C)C)c4)c(=O)oc3c2C)OC1(C)C ?
## Output 111

## Input Fill in the blank: the reported viability, T/C of CC(C)n1c(=O)n(C)c2cnc3cc(F)c(-c4ccc(OCCCN5CCCCC5)nc4)cc3c21 + Cc1cccc(N(C)C(=O)C2C(O)CCN2c2nc(C)cc(C(F)(F)F)c2C#N)c1 is ____.
## Output 103

## Input What viability, T/C value was documented for this compound, CCCS(=O)(=O)Nc1ccc(F)c(C(=O)c2c[nH]c3ncc(-c4ccc(Cl)cc4)cc23)c1F + COC1C(OC(N)=O)C(O)C(Oc2ccc3c(O)c(NC(=O)c4ccc(O)c(CC=C(C)C)c4)c(=O)oc3c2C)OC1(C)C ?
## Output 104

## Input // query viability, T/C value for entry COc1ccc([C@@H](O)c2cc(-c3ncnc4cc(N5CCOCC5)ccc34)c(F)cc2Cl)nn1 + COC1C(OC(N)=O)C(O)C(Oc2ccc3c(O)c(NC(=O)c4ccc(O)c(CC=C(C)C)c4)c(=O)oc3c2C)OC1(C)C
## Output 94

## Input GET /values?readout=viability, T/C&item= COc1cccc(OCCCN)c1-c1cc(Nc2cnc(C#N)cn2)n[nH]1 + Cc1cccc(N(C)C(=O)C2C(O)CCN2c2nc(C)cc(C(F)(F)F)c2C#N)c1
## Output 77.5

## Input Which viability, T/C reading was recorded for the compound CCc1cc2c(N3CCc4c(cc(Cn5ccnc5)cc4-c4cn(C)nc4C(F)(F)F)C3=O)ccnc2c(OC)n1 + Nc1ccc(C#CCN(C(=O)Cc2ncc(C(F)(F)F)cc2C(F)(F)F)c2ccc(F)cc2)nn1 ?
## Output 95.8

## Input Need viability, T/C, item CC1COCCN1c1cc(-c2ccnn2C)c2ccnc(-c3ccn[nH]3)c2n1 (stereo not given) + Nc1ccc(C#CCN(C(=O)Cc2ncc(C(F)(F)F)cc2C(F)(F)F)c2ccc(F)cc2)nn1
## Output 84.7

----------
# Tested on: 439559-082-T-J2-PDC spheroid viability
# protocol: Anticancer human tumor 439559-082-T-J2-PDC cell line growth inhibition [POLQ];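 note: spheroids exposed to compounds for seven days before readout; 100% = DMSO vehicle control viability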
# test_settings: second compound 0.1 µM; first compound 3.16 µM; stronger effect = lower value; spheroids with HUVEC and MSC
Field: label. Allowed values: true (1) (viability, T/C < 90%) or false (0) (viability, T/C >= 90%).

## Input Take the molecule COc1cc(C2c3cc4c(cc3C(OC3OC5COC(C)OC5C(O)C3O)C3COC(=O)C23)OCO4)cc(OC)c1O (stereo unspecified) + Nc1ccc(C#CCN(C(=O)Cc2ncc(C(F)(F)F)cc2C(F)(F)F)c2ccc(F)cc2)nn1 and say whether its viability, T/C is less than 90%.
## Output true (1)

## Input Answer whether the molecule CC(C)n1c(=O)n(C)c2cnc3cc(F)c(-c4ccc(OCCCN5CCCCC5)nc4)cc3c21 + Cc1cccc(N(C)C(=O)C2C(O)CCN2c2nc(C)cc(C(F)(F)F)c2C#N)c1 has viability, T/C strictly less than 90%
## Output false (0)

## Input Regarding O=c1[nH]cc(F)c(=O)[nH]1 + Nc1ccc(C#CCN(C(=O)Cc2ncc(C(F)(F)F)cc2C(F)(F)F)c2ccc(F)cc2)nn1 , kindly confirm whether its viability, T/C is beneath 90%.
## Output true (1)

## Input Answer whether the molecule CC1COCCN1c1cc(C2(O)CC3CCC(C2)O3)c2cnn(-c3ccn[nH]3)c2n1 (stereo unspecified) + Nc1ccc(C#CCN(C(=O)Cc2ncc(C(F)(F)F)cc2C(F)(F)F)c2ccc(F)cc2)nn1 has viability, T/C strictly less than 90%
## Output true (1)

## Input Input CCc1cc2c(N3CCc4c(cc(Cn5ccnc5)cc4-c4cn(C)nc4C(F)(F)F)C3=O)ccnc2c(OC)n1 + Nc1ccc(C#CCN(C(=O)Cc2ncc(C(F)(F)F)cc2C(F)(F)F)c2ccc(F)cc2)nn1 ; condition: viability, T/C strictly below 90%. Does it hold?
## Output false (0)

----------
# Test system: 439559-082-T-J2-PDC spheroid viability
# protocol: Anticancer human tumor 439559-082-T-J2-PDC cell line growth inhibition [POLQ];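 note: spheroids exposed to compounds for seven days before readout; 100% = DMSO vehicle control viability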
# test_settings: second compound 3.16 µM; first compound 0.316 µM; stronger effect = lower value; spheroids with HUVEC and MSC
attribute_measured: viability, T/C
Write down the value, and be sure its unit follows.

## Input Write down the reported viability, T/C of O=c1[nH]cc(F)c(=O)[nH]1 + COC1C(OC(N)=O)C(O)C(Oc2ccc3c(O)c(NC(=O)c4ccc(O)c(CC=C(C)C)c4)c(=O)oc3c2C)OC1(C)C , test system: 439559-082-T-J2-PDC spheroid viability.
## Output 83.9%

## Input Form field: viability, T/C recorded for COc1cccc2c1C(=O)c1c(O)c3c(c(O)c1C2=O)CC(O)(C(=O)CO)CC3OC1CC(N)C(O)C(C)O1 (centres undefined) + Nc1ccc(C#CCN(C(=O)Cc2ncc(C(F)(F)F)cc2C(F)(F)F)c2ccc(F)cc2)nn1 with 439559-082-T-J2-PDC spheroid viability (enter value)
## Output 61.2%

## Input Provide value of viability, T/C for this record tested with 439559-082-T-J2-PDC spheroid viability: COc1cc2cc(C(=O)CCC(=O)O)sc2cc1OC + Nc1ccc(C#CCN(C(=O)Cc2ncc(C(F)(F)F)cc2C(F)(F)F)c2ccc(F)cc2)nn1
## Output 98.6%

## Input Please tell me: viability, T/C of O=C(c1cc(Cc2n[nH]c(=O)c3ccccc23)ccc1F)N1CCN(C(=O)C2CC2)CC1 + Cc1cccc(N(C)C(=O)C2C(O)CCN2c2nc(C)cc(C(F)(F)F)c2C#N)c1 , system 439559-082-T-J2-PDC spheroid viability?
## Output 98.4%
